These entries and their values trace back to patent US8163737B2.

- tested target: endogenous CGRP receptor (Homo sapiens, UniProt O60894+Q16602)
- protocol details: CGRP functional antagonism using SK-N-MC-BLA (4C10), β-lactamase transcriptional reporter assay
- experimental context: SK-N-MC (4C10) cells, inhibition of β-lactamase expression in the presence of 200 pM CGRP
Reported IC50 values for a set of compounds

Fill in the blank: the reported IC50 of CC(C)(C)CCN1C(=O)[C@H](CC(=O)N2CCC(N3CCc4ccccc4NC3=O)CC2)S[C@@H]1c1ccccc1C1CCNCC1 [Compound 501] is ____.
< 1 µM

Fill in the blank: the reported IC50 of CC(C)(C)CCN1C(=O)C(CC(=O)N2CCC(N3Cc4ccccc4NC3=O)CC2)SC1c1c(F)cccc1F (stereo not shown) [Compound 25] is ____.
< 1 µM

Which IC50 reading was recorded for the compound O=C(CC1SC(c2ccccc2)N(CCC(F)(F)F)C1=O)N1CCC(N2Cc3ccccc3NC2=O)CC1 (stereo not shown) [Compound 191] ?
< 1 µM

What value of IC50 has been reported for the following compound? CNC1CCN(c2c(F)cccc2[C@H]2S[C@@H](CC(=O)N3CCC(n4c(=O)[nH]c5ncccc54)CC3)C(=O)N2CCC(C)(C)C)C1 (stereo partly shown) [Compound 458]
< 1 µM

Query (compound): CN1CCN(c2c(F)cccc2C2SC(CC(=O)N3CCC(N4CCc5ccccc5NC4=O)CC3)C(=O)N2CCC(C)(C)C)CC1 (stereo not shown) [Compound 324] ; field requested: IC50
< 1 µM

I am curious: what IC50 value has been reported for CN(C)C1CCN(c2c(F)cccc2[C@H]2S[C@@H](CC(=O)N3CCC(n4c(=O)[nH]c5ncccc54)CC3)C(=O)N2CCC(C)(C)C)C1 (stereo partly shown) [Compound 455] ?
1 to 5 µM

Need IC50, item CC(C)(C)CCN1C(=O)C(CC(=O)N2CCC(N3CCc4ccccc4NC3=O)CC2)SC1c1ccccc1N1CCN(CCO)CC1 (stereo not shown) [Compound 372]
> 5 µM

Need IC50, item CC(C)(C)N1CCN(c2c(F)cccc2[C@@H]2S[C@@H](CC(=O)N3CCC(N4CCc5ccccc5NC4=O)CC3)C(=O)N2CC2CC2)CC1 [Compound 488]
< 1 µM

***
Name the reported IC50 value associated with the compound CC(C)CCN1C(=O)C(CC(=O)N2CCC(N3Cc4ccccc4NC3=O)CC2)SC1c1c(F)cccc1Cl (stereo not shown) [Compound 166]
< 1 µM

What does the data say about its IC50? Entry: CN(C)[C@H]1CCN(c2ccccc2C2SC(CC(=O)N3CCC(N4CCc5ccccc5NC4=O)CC3)C(=O)N2CCC(C)(C)C)C1 (stereo partly shown) [Compound 407]
< 1 µM

Which IC50 is reported for this compound? CC(C)CCN1C(=O)C(CC(=O)N2CCC(N3CCc4ccccc4NC3=O)CC2)SC1Cc1ccccc1 (stereo not shown) [Compound 98]
1 to 5 µM

Endpoint output: IC50 of CN1CCN(c2ccccc2C2SC(CC(=O)N3CCC4(CC3)CC(=O)c3ccccc3O4)C(=O)N2CCC(C)(C)C)CC1 (stereo not shown) [Compound 332] . Value?
> 5 µM

What value of measured IC50 is listed for CN1CCN(c2ccccc2[C@@H]2S[C@](C)(CC(=O)N3CCC(N4CCc5ccccc5NC4=O)CC3)C(=O)N2CCC(C)(C)C)CC1 [Compound 375] ?
< 1 µM

* * *

- tested target: CGRP receptor (SK-N-MC membrane) (Homo sapiens, UniProt O60894+Q16602)
- Construct: Purified SK-N-MC membrane was purchased from Perkin Elmer; purchased Perkin Elmer; host or cells: SK-N-MC membrane
- Sequence (Q16602 23-461): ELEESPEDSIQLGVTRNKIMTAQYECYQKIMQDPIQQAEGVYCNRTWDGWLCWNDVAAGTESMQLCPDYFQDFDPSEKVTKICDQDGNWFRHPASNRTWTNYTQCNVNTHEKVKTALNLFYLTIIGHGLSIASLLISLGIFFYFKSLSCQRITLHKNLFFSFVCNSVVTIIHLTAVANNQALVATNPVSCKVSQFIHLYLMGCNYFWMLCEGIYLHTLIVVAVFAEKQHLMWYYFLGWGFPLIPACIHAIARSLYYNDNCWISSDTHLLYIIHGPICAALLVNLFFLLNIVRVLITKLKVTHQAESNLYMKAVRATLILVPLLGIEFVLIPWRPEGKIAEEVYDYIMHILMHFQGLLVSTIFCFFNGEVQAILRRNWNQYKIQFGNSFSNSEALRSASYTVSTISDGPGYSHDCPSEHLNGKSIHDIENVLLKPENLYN
- Sequence (O60894 27-148): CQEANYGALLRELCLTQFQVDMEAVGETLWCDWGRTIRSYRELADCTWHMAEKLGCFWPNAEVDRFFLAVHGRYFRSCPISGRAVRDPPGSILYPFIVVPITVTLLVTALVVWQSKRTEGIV
- protocol details: I125-CGRP binding displacement assay on purified SK-N-MC membrane
pKi: −log10 of the molar value.
property measured: pKi

Recorded pKi for O=C(CC1SC(c2ccccc2)N(CCc2ccncc2)C1=O)N1CCC(n2cc(-c3ccccc3)[nH]c2=O)CC1 (stereo not shown) [Compound 53] , please?
< 5.30

* * *

- tested target: endogenous CGRP receptor (Homo sapiens, UniProt O60894+Q16602)
- protocol details: CGRP functional antagonism using SK-N-MC-BLA (4C10), β-lactamase transcriptional reporter assay
- experimental context: SK-N-MC (4C10) cells, inhibition of β-lactamase expression in the presence of 200 pM CGRP
pIC50: −log10 of the molar value.
The following compounds are shown together with reported pIC50 values.

Endpoint output: pIC50 of "CC(C)(C)N1CCN(c2c(F)cccc2[C@@H]2S[C@@H](CC(=O)N3CCC(N4CCc5ccccc5NC4=O)CC3)C(=O)N2CCc2ccc(F)cc2)CC1" . Value?
> 6.00

Entry "CC(C)(C)CCN1C(=O)[C@H](CC(=O)N2CCC(O)(c3ccc(F)cc3)CC2)S[C@@H]1c1cccc(F)c1N1CCN(C(C)(C)C)CC1" : reported pIC50 = ?
> 6.00

Give its pIC50 value. Item: CN1CCCN(c2ccccc2C2SC(CC(=O)N3CCC(N4CCc5ccccc5NC4=O)CC3)C(=O)N2CCC(C)(C)C)CC1 (stereo not drawn)
> 6.00

# query: pIC50 of entry CC(C)(C)CCN1C(=O)[C@H](CC(=O)N2CCC(N3CCc4ccccc4NC3=O)CC2)SC1c1cccc(F)c1N1CCNCC1 (stereo partly drawn) [Compound 399]
< 5.30

Quick check: pIC50 of CCCCN1C(=O)[C@H](CC(=O)N2CCC(N3CCc4ccccc4NC3=O)CC2)SC1c1cccc(F)c1N1CCN(C(C)(C)C)CC1 (stereo partly drawn) [Compound 521] ?
> 6.00

Now turn to the next compound.
Quick one: pIC50 for CC(C)CCN1C(=O)C(CC(=O)N2CCC(N3Cc4ccccc4NC3=O)CC2)SC12CCCCC2 (stereo not drawn) ?
5.30 to 6.00

* * *

Item-by-item account of pIC50
- tested target: endogenous CGRP receptor (Homo sapiens, UniProt O60894+Q16602)
- protocol details: CGRP functional antagonism using SK-N-MC-BLA (4C10), β-lactamase transcriptional reporter assay
- experimental context: SK-N-MC (4C10) cells, inhibition of β-lactamase expression in the presence of 200 pM CGRP
pIC50: −log10 of the molar value.

What does the record list as pIC50 for COc1ccc(F)cc1C1CCN(C(=O)CC2SC(c3ccccc3)N(CCC(C)C)C2=O)CC1 (centres unmarked) ?
< 5.30

Using the record for CCC(CC)C1SC(CC(=O)N2CCC(N3Cc4ccccc4NC3=O)CC2)C(=O)N1CCC(C)C (centres unmarked) , report its pIC50.
> 6.00

Others:
// pIC50 lookup, key: CN(C)CCN(C)c1ccccc1C1SC(CC(=O)N2CCC(N3CCc4ccccc4NC3=O)CC2)C(=O)N1CCC(C)(C)C (centres unmarked)
5.30 to 6.00

// query pIC50 value for entry O=C(CC1SC(c2ccccc2)N(CCC(F)(F)F)C1=O)N1CCC(N2CCc3ccccc3NC2=O)CC1 (centres unmarked)
> 6.00

Record request: pIC50 value, item O=C(CC1SC(C2CCCCC2)N(c2ccc(N3CCOCC3)cc2)C1=O)N1CCC(N2CCc3ccccc3NC2=O)CC1 (centres unmarked)
> 6.00

* * *

Examples of molecules with documented IC50 follow.
- tested target: endogenous CGRP receptor (Homo sapiens, UniProt O60894+Q16602)
- protocol details: CGRP functional antagonism using SK-N-MC-BLA (4C10), β-lactamase transcriptional reporter assay
- Assay type: cell-based
- experimental context: SK-N-MC (4C10) cells, inhibition of β-lactamase expression in the presence of 200 pM CGRP

In the examples that follow, each entry is paired with its recorded IC50.
What value of IC50 has been reported for the following molecule? CN1CCN(c2cccc(C3SC(CC(=O)N4CCC(n5c(=O)[nH]c6ncccc65)CC4)C(=O)N3CCC(C)(C)C)c2)CC1 (centres unmarked)
< 1000 nM

Given the entry CC(C)CCN1C(=O)C(CC(=O)N2CCC(N3Cc4ccccc4NC3=O)CC2)SC1c1c(Cl)cccc1Cl (centres unmarked) , report its measured IC50.
< 1000 nM

What does the data say about its IC50? Entry: CC(C)(C)N1CCN(c2c(F)cccc2C2S[C@@H](CC(=O)N3CCC(n4c(=O)[nH]c5ncccc54)CC3)C(=O)N2CCc2ccccc2)CC1 (some centres unmarked)
< 1000 nM

Give its IC50 value. Item: CC(C)CCN1C(=O)C(CC(=O)N2CCC(N3Cc4ccccc4NC3=O)CC2)SC1C1CCCCC1 (centres unmarked)
< 1000 nM

What does the data say about its IC50? Entry: "CC(C)(C)CCN1C(=O)[C@H](CC(=O)N2CCC(N3CCc4ccccc4NC3=O)CC2)S[C@H]1c1ccccc1C1CCNCC1"
< 1000 nM

Reported IC50 for "CC(C)N1CCN(c2c(F)cccc2[C@H]2S[C@@](C)(CC(=O)N3CCC(n4c(=O)[nH]c5ncccc54)CC3)C(=O)N2CCC(C)(C)C)CC1" : what is it?
< 1000 nM

New cases:
Could you tell me which IC50 is on file for CC(C)(C)CCN1C(=O)C(CC(=O)N2CCC(N3Cc4ccccc4NC3=O)CC2)SC1(C)c1ccccc1 (centres unmarked) ?
< 1000 nM

Suppose we examine the molecule CC(C)(C)CCN1C(=O)C(CC(=O)N2CCC(n3c(=O)[nH]c4ncccc43)CC2)SC1c1cccc(F)c1N1CCN(C2CC2)CC1 (centres unmarked) ; what IC50 value has been reported?
> 5000 nM

# get_value(readout='IC50', item= CCCC1SC(CC(=O)N2CCC(N3Cc4ccccc4NC3=O)CC2)C(=O)N1CCC(C)C (centres unmarked) )
< 1000 nM

Give its IC50 value. Item: O=C(CC1SC(c2ccccc2)N(CC2CCCO2)C1=O)N1CCC(N2CCc3ccccc3NC2=O)CC1 (centres unmarked)
< 1000 nM

What IC50 value was documented for this molecule, CC(C)CCN1C(=O)C(CC(=O)N2CCC(N3CCc4ccccc4NC3=O)CC2)SC1c1ccccc1F (centres unmarked) ?
< 1000 nM

Quick check: IC50 of CC(C)(C)CCN1C(=O)[C@H](CC(=O)N2CCC(N3CCc4ccccc4NC3=O)CC2)SC1c1cccc(F)c1N1CCC(F)(F)C1 (some centres unmarked) ?
> 5000 nM

Return reported IC50; argument: CC(C)CCN1C(=O)C(CC(=O)N2CCC(N3CCc4ccccc4NC3=O)CC2)SC1c1cc(C(F)(F)F)ccc1F (centres unmarked)
< 1000 nM

So what does the record say about IC50 for CC(C)(C)CCN1C(=O)C(CC(=O)N2CCC(N3CCc4ccccc4NC3=O)CC2)SC1c1cccc(F)c1N1CC(F)(C2CC2)C1 (centres unmarked) ?
1000 to 5000 nM

I'd like to know its IC50. The molecule in question is CC(C)(C)CCN1C(=O)[C@H](CC(=O)N2CCC(n3c(=O)[nH]c4ncccc43)CC2)S[C@H]1c1cccc(F)c1N1CCC(N)C1 (some centres unmarked) [Compound 465]
1000 to 5000 nM

// returns reported IC50 for input O=C(CC1SC(C2CCCCC2)N(c2ccc(N3CCOCC3)cc2)C1=O)N1CCC(n2c(=O)[nH]c3ncccc32)CC1 (centres unmarked)
< 1000 nM

May I ask what IC50 has been recorded for CC(C)(C)CCN1C(=O)C(CC(=O)N2CCC(n3c(=O)[nH]c4ccccc43)CC2)SC12c1ccccc1-c1ccccc12 (centres unmarked) ?
1000 to 5000 nM

Consider the molecule CC(C)(C)CCN1C(=O)[C@H](CC(=O)N2CCC(n3c(=O)[nH]c4ncccc43)CC2)SC1c1cccc(F)c1N1CCC(F)(F)C1 (some centres unmarked) and give its measured IC50.
1000 to 5000 nM
